- targetSystem: T1, human βI-tryptase monomer (Homo sapiens, UniProt Q15661)
- T1 construct: mature human βI-tryptase, Ile31-Pro275 of Uniprot Q15661 (Ile16-Pro246 in chymotrypsinogen numbering); The monomer used in SPR and HDX-MS; also called monomeric βI-tryptase; monomeric β-tryptase
- T1 sequence (Q15661 31-275): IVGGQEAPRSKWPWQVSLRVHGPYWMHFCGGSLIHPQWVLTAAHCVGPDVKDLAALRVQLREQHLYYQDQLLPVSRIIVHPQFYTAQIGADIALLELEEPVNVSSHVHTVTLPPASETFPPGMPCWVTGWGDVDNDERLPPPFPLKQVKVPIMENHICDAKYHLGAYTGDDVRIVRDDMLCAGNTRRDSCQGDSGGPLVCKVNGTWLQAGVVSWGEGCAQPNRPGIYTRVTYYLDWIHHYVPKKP
- experiment: SPR; Biacore T200; E104 IgG variants captured on immobilised mouse anti-human IgG (Fc) antibody on CM5 chips; threefold dilutions of human βI-tryptase monomer injected at 30 µL/min, 25 °C; 1:1 Langmuir model; n = 2
- testConditions: both partners purified
endpointLabel: Kd (nM)

binder	measValue
humanized E104.v2 IgG4 (antibody, V domains shown, variable domain of the heavy chain as in m6 (PDB 6VVU, Fab heavy chain) with V71R and F78V (Kabat numbering); human IgG4 heavy chain constant region; upper hinge printed as ESKYGPP; as the light chain of m6 (PDB 6VVU, Fab light chain); IgG4 isotype version of E104.v2; source: 293 cells, transient transfection, purified (MabSelect SuRe, SEC); copies: 2 + 2) VH: EVQLVESGPGLVKPSETLSLTCTVSRFSLIGYAITWIRQPPGKGLEWIGGISSAATTFYSSWAKSRVTISRDTSKNQVSLKLSSVTAADTAVYYCARDPRGYGAALDRLDLWGQGTLVTVSS VL: DIQMTQSPSSLSASVGDRVTITCQSIKSVYNNRLGWYQQKPGKAPKLLIYETSILTSGVPSRFSGSGSGTDFTLTISSLQPEDFATYYCAGGFDRSGDTTFGQGTKVEIK	0.7
